Entry source: the supplement of paper PMC9170038

Kindly supply the reported apparent KD of MS2 coat protein values for the records listed here.
# Tested on: MS2 coat protein
# assay.explanation: apparent KD of MS2 coat protein, switch OFF state (with FMN for OFF switches, without FMN for ON switches); designed switch direction (-1 OFF switch, 1 ON switch): -1; higher = weaker reporter binding
# condition.set: FMN input: 0 or 200 uM; Eterna round: R93 (includes R88 designs)
One number for each entry, in nM.

Consider the following illustrative entries.
GUUAUGUGAGGAUAUAUGUAGGAAACUACAUUAAGGGUAUCACAUGAGGAUCACCCAUGUAGAAGGCGCGUAGC [Ex2Try2_Neo]
256
GAAAGGGCAGGAUAUGCAGAGAGAGAGAGAGAAAAAAAAAAACAUGAGGAUCACCCAUGUAGAAGGGCCGAAAG [salish99-ex2-05]
32.2
CUCAUGUGAGGAUAUGUACGAAAAAAUAAAAAAAUAAAAGUACAGAAGGCACAUGAGGAUCACCCAUGUGAAAA [EX4 398: Minimal 11]
24.3
ACUUGACAUGAGGAUCACCCAUGUCAGGAUAUAGUAGGACAAAUAAAUAAAAGUUCUACUAGAAGGGAUAUGGA [Design 18: G-U+ 3]
15.7
AAAAAACAUGAGGAUCACCCAUGUAAGGAUAUGCUGAAAAACACUGGAAAACAGUGCAGCAGAAGGUACAAAAA [66%, Wbt, 34]
36.1

State recorded apparent KD of MS2 coat protein for all listed sequences.
1. CUGGUGUCAGGAUAUGCAUAGCAGUGACCAAAACCCGGUCAGCAGAAGGGACAUGAGGAUCACCCAUGUUAAAG [Alatele]
2. AGCACGUCAGGAUAUACGAACACAAAGGGUAACAACAAGGGACAUGAGGAUCACCCAUGUAGAAGGGACUAGCA [Diamond 96]

**Result**
1: 57.7; 2: 61.9

State recorded apparent KD of MS2 coat protein for all listed sequences.
1. AACUGACAUGAGGAUCACCCAUGUCAGGAUAUGACUUCAAAAAAAAAAAAAAAUGAUGUCAGAAGGGACAUGGA [Design 64: Sub-opt MB]
2. AAAACGGUAGGAUAUACAAUUGAGAACUAGAUCGAAAAAAAACAUGAGGAUCACCCAUGUAGAAGGGCCAAAAA [Ex2 Malc#10]
3. AAGAACAGAGGAUAUACAUGAGGAUCACCCAUGUAAAAGAAAGAAGGGAAAGAGAAAAGUAGAAGGCUGAAGAA [Titaru]

**Result**
1: 20.7; 2: 23.6; 3: 31.7

State recorded apparent KD of MS2 coat protein for all listed sequences.
1. AUAAAGACAGGAUAUACAUGAGGAUCACCCAUGUAAAAAAAAAAAUGAUCCUCAAAAAGUAGAAGGGUCAAUAA [JR_Exc003_Sub015]
2. AAGGAGUAAGGAUAUCGGAAAGGACACGAAAGUGACAAAGACGAGAAGGUACAUGAGGAUCACCCAUGUAAAAA [milkweed 23]
3. UAAAAGUGAGGAUAUGUCAAAAGUCACAAAAGUGACAAAAGACAGAAGGCACAUGAGGAUCACCCAUGUGAAAU [Mat - Exaclusion 4 - Eli mod - D56]
4. AAAAAACAUGAGGAUCACCCAUGUAAGGAUAUCUAAAAUAAAAGAAAAAUAAAGAAAAGGAGAAGGUAUAUGAA [JL wbt mod 20]

**Result**
1. 155
2. 14.5
3. 32.2
4. 25.7

* * *

# System: K4 kissing-loop RNA reporter;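 note: bound reporter read as fluorescence of individual clusters on recovered sequencing chips by microscopy, with normalized cluster intensities fitted with a binding model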
# assay.explanation: apparent KD of K4 kissing-loop reporter; higher = weaker reporter binding
# condition.set: Eterna round: R107; input ligand: arginine 13.2 mM
attribute.measured: apparent KD of K4 kissing-loop reporter
Write the numeric value and append its unit.

Consider the following illustrative entries.
AAGCAGUCUCUCGAAGCCAUCGAAGAUGGGCGAGGACCGGUACGGCCGCCACUCGGAGUGAUGUUCCGAAGACUGCAAAAUAAAA [MatMod 10 - Jieux - Exclusion - Tryptophan A]
223 nM
CAUACGCAUGGAGGAUAUGAGAUUUCUCAUGUCAUUUAAUAUUCUCAGUGAUGUUGAGAAUUUGGCUCAGAAGGCCAUGUGUAUG [Ex FMN B 20]
465 nM
GGAUAGGACAUAGGAUAUGGUAGUGAUGUUACCAAACUGGUUAAACAUGUCAGAAAACUGGCAUGACCAGAAGGAUGUCCUAUCG [FmnBX 27 U11+A75]
63.2 nM
GCAACAUUGGCAGGAUAUCCUUCUCAGUGAUGUUGAGGGUUCAGCUAACGAAAGUUAGUUGUACCGGGAGAAGGGCUAAUGUUGC [Omei KL FMN B SS A v8]
650 nM
GAUGUAGAGGCGGCCGCCACUAGUGAUGUUAGUGAUGUUUGAUACUGUAUAUAUCGGCGUGUAGAUAGGACCGGGCCUGAUGGAG [dbbdmullin]
165 nM

Please turn your attention to the following entry.
**Query** Item ACGUGCACGAGUGAUGUUUGAAAAUCUGAAGGAGCGGGCGAAAGCCCAGGUAGGUCGCAGAAUAGCACGAGCCACGAAAGUGGCA has what recorded apparent KD of K4 kissing-loop reporter?
**Result** 272 nM

* * *

# Tested on: MS2 coat protein
# assay.explanation: apparent KD of MS2 coat protein; designed switch direction (-1 OFF switch, 1 ON switch): -1; higher = weaker reporter binding
# condition.set: input ligand: none
attribute.measured: apparent KD of MS2 coat protein (nM)
Answers are plain numbers, in nM.

GCAGACGUAGUGAGGAUAUGCUCUACCUCGGUAGAGCAGAAGGCACAUGAGGAUCACCCAUGUGAUUCUUCUGC [Omei Ex4B B10] (Eterna round: R97, puzzle: Brourd's mod of Exclusion 4)
47.2

**Query** Enter reported apparent KD of MS2 coat protein observed with MS2 coat protein for CCCGCAGGUUUUUUGCUCGACAUGAGGAUCACCCAUGUUGCGUGGGUUGUGUGUGUGUGGUGCAUAUAUAUGGUCCU [-25.4, -48.9 kcal, A 14%] (Eterna round: R97, puzzle: Sensor, turn-off variant 1)
**Result** 350

* * *

# Tested on: MS2 coat protein
# assay.explanation: apparent KD of MS2 coat protein; designed switch direction (-1 OFF switch, 1 ON switch): -1; higher = weaker reporter binding
# condition.set: input ligand: FMN 200 uM
# binarize apparent KD of MS2 coat protein: threshold 40 nM inclusive, high side condition met, low side condition not met

Before answering, review these 8 worked examples.
CAGUACGGAGGAUAUACAUGAGGAUCACCCAUGUGAGAGAUACUAGUGAGGUCGAUUAGUAGAAGGCUGUACUG [Mat X3R4 m6] (Eterna round: R97, puzzle: Exclusion 3)
condition met
ACAUGAAGAUAGGAUAUCCGCGAAAAUGGUCUAGGAGAAGGGUCUACAUGAGGAUCACCCAUGUAGCAGUGGAU [Eternabot (L1) Solution 79] (Eterna round: R97, puzzle: Exclusion 6)
condition not met
GUAAUCUUAGGAUAUUUACGGGUCGACAUGAGGAUCACCCAUGUACCCACGUAGGCCUGAGAAGAAGGAAGAUGAC [EX5 C.24] (Eterna round: R97, puzzle: Exclusion 5)
condition not met
ACCAUAGAUGUAGGAUAUCCAUGAAGAUAACAAGGAGAAGGACAUGAGGAUCACCCAUGUAAGUAUUAUGAAUGUAGCGACAGC [Meechl Ex NG1] (Eterna round: R96, puzzle: Exclusion NG 1)
condition met
GAUCCGUUAGGAUAUCGUGAGGACAGCUAGUCUUAUUAACACGAGAAGGAACAUGAGGAUCACCCAUGUGGUAA [Eternabot (L1) Solution 14] (Eterna round: R97, puzzle: Exclusion 4)
condition met
GCUGCGCGCUGUCGGGCGUCUGGUCUUGGAGGGAUAGACACAUGAGGAUCACCCAUGUUUCGGGUGUUCUUUCUAUA [JR_Sensorv2_tov2_Sub1512] (Eterna round: R96, puzzle: Sensor v2, turn-off variant 2)
condition met
UAUAUAUAGUAAGGAUAUGUAAUUAUAUUAUAAACAGAAGGUACUGACAUGAGGAUCACCCAUGUUUUAGUGUGGGCAUGUAGA [JMF's solution 38] (Eterna round: R96, puzzle: Exclusion NG 1)
condition met
GUCCUCAUGACAUGAGGAUCACCCAUGUAUUAUUUGUUAACUGAGGAUAUACUCUUAUUUUUUAUGUAGAAGGCAGAUUUGUUC [JR_ExcNG3_Sub021] (Eterna round: R96, puzzle: Exclusion NG 3)
condition met

**Query** Form field: apparent KD of MS2 coat protein at least 40 nM? Entry: CUGCUCCGUGUAGGAUAUGCGCGCACCCAACGCGCAGAAGGACAUGAGGAUCACCCAUGUAUGUUAUUAUCACGUGAGGCGCAG [Design 34] (Eterna round: R96, puzzle: Exclusion NG 1)
**Result** condition not met

**Query** Form field: apparent KD of MS2 coat protein at least 40 nM? Entry: AAACACGGAGGAUAUACAGGUUCAGGAAACCGAACCGGCUGACAUGAGGAUCACCCAUGUAGAAGGCCGAAAUA [EX2 A.23] (Eterna round: R97, puzzle: Exclusion 2)
**Result** condition not met
